B1: LINE1-full (parent)
chain: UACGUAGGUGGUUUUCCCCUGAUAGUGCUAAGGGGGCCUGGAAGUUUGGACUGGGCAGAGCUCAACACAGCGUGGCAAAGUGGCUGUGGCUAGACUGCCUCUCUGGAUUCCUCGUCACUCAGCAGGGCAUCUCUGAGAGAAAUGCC

Variants of: B1
Assay: self-cleavage, relative activity (ratio to wild type); higher = more cleavage; in vitro, sequencing; the parent is a self-cleaving ribozyme
measure-name: self-cleavage

| mutation-label | self-cleavage |
| --- | --- |
| A78G U102C | 1.53 |
| C66A | 0.05 |

Please report the recorded self-cleavage for A31U C37A . 1.53

Fill blank: measured self-cleavage of the variant A59U U143A is ____. 0.75

So what's the measured self-cleavage for this one? C56U G74A 0.09

Quick one: self-cleavage of G4A U20G ? 0.62

What value of measured self-cleavage is listed for A57G A124C ? 0.91

What does the data say about its self-cleavage? Entry: U14A A136U 1.19

Quick one: self-cleavage of A117C G144U ? 1.13

I am curious: what self-cleavage value has been reported for U20A A92U ? 0.92

Look up self-cleavage for this variant: G4U A30G 1.11

// query self-cleavage value for entry C37U U130A 0.99

Param item = U108C U112A ; retrieve measured self-cleavage. 1.94

Entry G55A A92G has what self-cleavage? 0.03

Param item = A67C A140G ; retrieve measured self-cleavage. 0.06

self-cleavage for U96A C123U ? 0.06

Requested read-out: self-cleavage. Entry: A42U U47C 1.7

Fill blank: measured self-cleavage of the variant A59U A64G is ____. 0.09

Returns the measured self-cleavage for the input variant. Input: G93A A129G 0.08

Could you tell me which self-cleavage is on file for U47G U91A ? 1.93

Give its self-cleavage value. Item: G93A U130C 0.02

Quick check: self-cleavage of A42U A107U ? 0.92

What value of measured self-cleavage is listed for A92G C146U ? 0.07
